Molecular target: IKBKB (IKKβ) (Homo sapiens, UniProt O14920)
Sequence (O14920 1-756): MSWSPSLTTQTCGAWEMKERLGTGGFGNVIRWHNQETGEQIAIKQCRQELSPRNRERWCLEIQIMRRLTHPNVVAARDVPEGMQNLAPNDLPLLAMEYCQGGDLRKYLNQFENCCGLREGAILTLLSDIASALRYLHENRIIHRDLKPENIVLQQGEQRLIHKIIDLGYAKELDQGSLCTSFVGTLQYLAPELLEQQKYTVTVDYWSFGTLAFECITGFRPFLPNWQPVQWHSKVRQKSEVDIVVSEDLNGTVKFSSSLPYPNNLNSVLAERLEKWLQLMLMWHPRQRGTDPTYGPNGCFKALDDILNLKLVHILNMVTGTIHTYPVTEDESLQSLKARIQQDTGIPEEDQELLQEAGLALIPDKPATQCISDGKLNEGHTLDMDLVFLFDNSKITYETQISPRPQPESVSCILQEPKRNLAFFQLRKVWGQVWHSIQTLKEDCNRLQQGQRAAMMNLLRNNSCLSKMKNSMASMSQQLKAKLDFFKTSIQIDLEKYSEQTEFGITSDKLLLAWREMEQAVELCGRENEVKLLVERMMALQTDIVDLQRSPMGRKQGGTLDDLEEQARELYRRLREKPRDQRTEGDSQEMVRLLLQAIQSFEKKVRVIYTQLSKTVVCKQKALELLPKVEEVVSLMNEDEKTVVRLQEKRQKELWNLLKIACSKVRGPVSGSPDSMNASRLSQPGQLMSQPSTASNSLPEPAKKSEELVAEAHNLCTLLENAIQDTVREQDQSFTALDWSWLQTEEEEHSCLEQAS
pIC50: −log10 of the molar value.
Hi there, I'd appreciate the recorded pIC50 for every entry that follows.

Asked: Write down pIC50 measured for item NC(=O)Nc1sc(-c2ccc(OCC[C@@H](N)C(=O)O)cc2)cc1C(N)=O [Example 25]
Given back: > 6.00

Asked: Note pIC50 for the compound shown: NC(=O)Nc1sc(-c2ccc(CCC[C@@H](N)C(=O)O)cc2)cc1C(N)=O [Example 36]
Given back: > 6.00

Asked: Please report the measured pIC50 for NC(=O)Nc1sc(-c2ccc(OCC[C@H](N)C(=O)OC3CCCC3)cc2)cc1C(N)=O [Example 2]
Given back: > 6.00

Asked: State its pIC50 for this compound: NC(=O)Nc1sc(-c2ccc(OCCC[C@H](N)C(=O)OC3CCCC3)cc2)cc1C(N)=O [Example 3]
Given back: > 6.00

Asked: # return recorded pIC50 for entry NC(=O)Nc1sc(-c2ccc(C#CC[C@H](N)C(=O)O)cc2)cc1C(N)=O [Example 39]
Given back: > 6.00

Asked: Give the reported value of pIC50 for this record: Cc1cc(OCC[C@H](N)C(=O)OC2CCCC2)ccc1-c1cc(C(N)=O)c(NC(N)=O)s1 [Example 5]
Given back: > 6.00

Asked: Give me measured pIC50, please, for this compound: NC(=O)Nc1sc(-c2ccc(/C=C\C[C@H](N)C(=O)OC3CCCC3)cc2)cc1C(N)=O [Example 18]
Given back: > 6.00

Asked: Fill in reported pIC50 for this entry: NC(=O)Nc1cc(-c2ccc(C[C@H](N)C(=O)O)cc2)sc1C(N)=O [Example 47]
Given back: > 6.00

The reported measurements were obtained from patent US8106091B2.
